- Target system: Substance-K receptor (Rattus norvegicus)
- Assay explanation: Allosteric modulation of rat NK2 receptor expressed in HEK293 cells assessed as formation of active receptor calcium-triggering conformation at 10 uM in presence of 20nM NKA-Bo by FRET assay
- Format: functional, cell-based
Property label: Activity (%)

# Molecular string, Activity [%]
data = [
    ("N#CCN(Cc1ccc2ccccc2c1)Cc1ccccc1Br", 43),
    ("N#CCN(Cc1ccc(Br)cc1)Cc1ccc2ccccc2c1", 45),
    ("O=C(O)CCCCN(Cc1ccccc1)Cc1ccc2ccccc2c1", 44),
    ("COc1ccc(CN(CC#N)Cc2ccccc2)cc1", 49),
    ("c1ccc(CN(Cc2ccc3ccccc3c2)c2cccnc2)cc1", 59),
    ("c1ccc(CN(Cc2ccc3ccccc3c2)c2ccncn2)cc1", 61),
    ("N#CCN(Cc1ccc(CCc2ccccc2)cc1)Cc1ccc2ccccc2c1", 39),
    ("N#CCN(Cc1ccccc1)Cc1cccc(Cl)c1", 45),
    ("O=C(CN(Cc1ccccc1)Cc1ccc2ccccc2c1)OCCN1CCOCC1", 42),
    ("O=C(CN(Cc1ccccc1)Cc1ccc2ccccc2c1)OCCc1ccccc1", 46),
    ("CCOC(=O)CN(Cc1ccccc1)Cc1ccc2ccccc2c1", 51),
    ("N#CCCCN(Cc1ccccc1)Cc1ccc2ccccc2c1", 68),
    ("N#CCN(Cc1ccccc1)Cc1ccc(C(F)(F)F)cc1", 48),
    ("O=C(CN(Cc1ccccc1)Cc1ccc2ccccc2c1)N1CCN(c2ccccc2)CC1", 43),
    ("CCCCCCCCCCCCCCCCOC(=O)CN(Cc1ccccc1)Cc1ccc2ccccc2c1", 38),
    ("COc1ccc(CN(CC#N)Cc2ccc3ccccc3c2)cc1", 54),
    ("O=C(CN(Cc1ccccc1)Cc1ccc2ccccc2c1)N1CCCCC1", 44),
    ("CCOC(=O)CCCCN(Cc1ccccc1)Cc1ccc2ccccc2c1", 52),
]

###

- Target system: Substance-K receptor (Rattus norvegicus)
- Assay explanation: Inhibition of NKA-Bo binding to rat NK2 receptor expressed in HEK293 cells at 10 uM by FRET assay relative to neurokinin A
- Format: cell-based
Property label: inhibition (%)

# Molecular string, Reported result
rows = [
    ("O=C(CN(Cc1ccccc1)Cc1ccc2ccccc2c1)N1CCCCC1", 0),
]

1. N#CCN(Cc1ccccc1)Cc1ccc2ccccc2c1
2. N#CCN(Cc1ccc(CCc2ccccc2)cc1)Cc1ccc2ccccc2c1
3. c1ccc(CN(Cc2ccc3ccccc3c2)c2ccncn2)cc1
I would appreciate it if you could sort these 3 compounds by inhibition, starting from the smallest number. Return the labels ranked in the requested order, please.
1, 2, 3

P. c1ccc(CN(Cc2ccc3ccccc3c2)c2cccnc2)cc1
Q. c1ccc(CN(Cc2ccc3ccccc3c2)c2ccccn2)cc1
Hi there! Just curious which has the higher inhibition between P and Q . // caller expects the label of the chosen entry
Q
(Q: 17%, P: 0%)

###

- Target system: Substance-K receptor (Rattus norvegicus) (UniProt P16610)
- Sequence (whole entry): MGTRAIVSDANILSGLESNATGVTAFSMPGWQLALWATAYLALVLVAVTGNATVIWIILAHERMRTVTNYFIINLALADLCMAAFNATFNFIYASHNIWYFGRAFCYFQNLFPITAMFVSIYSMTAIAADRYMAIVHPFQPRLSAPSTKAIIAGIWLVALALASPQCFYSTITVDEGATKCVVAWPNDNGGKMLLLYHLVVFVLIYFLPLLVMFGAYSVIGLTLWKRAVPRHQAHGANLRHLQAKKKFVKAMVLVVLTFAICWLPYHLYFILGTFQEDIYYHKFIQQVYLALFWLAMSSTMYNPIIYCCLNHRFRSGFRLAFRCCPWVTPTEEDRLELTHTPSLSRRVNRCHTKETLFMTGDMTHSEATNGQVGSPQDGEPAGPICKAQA
- Assay explanation: Allosteric modulation of rat NK2 receptor expressed in HEK293 cells assessed as formation of active receptor calcium-triggering conformation at 10 uM in presence of 20nM NKA-Bo by FRET assay
- Format: functional, cell-based
Property label: Activity (%)

# Molecular string, Reported result
measured = [
    ("CN1CCN(C(=O)CN(Cc2ccccc2)Cc2ccc3ccccc3c2)CC1", 58),
    ("N#CCN(Cc1ccccc1)Cc1ccc(Cl)cc1", 53),
    ("N#CCN(Cc1ccccc1)Cc1ccc2ccccc2n1", 47),
    ("N#CCN(Cc1ccc(I)cc1)Cc1ccc2ccccc2c1", 47),
    ("N#CCN(C/C=C/c1ccccc1)Cc1ccccc1", 47),
    ("O=C(CN(Cc1ccccc1)Cc1ccc2ccccc2c1)OCCO", 53),
]
